Test system: KM12 colon
methodDescription: NCI tumour cell line growth inhibition, 48 h
recordedMetric: TGI (µM)
Field: numeric (µM). Do not append units.

Requested field: TGI. Item: Cc1ccc(C(=O)NCCN(C)C)c2nc3ccccc3cc12
6.91

Requested field: TGI. Item: C=C1C(=O)C2=CC1CCC(=O)C1(C)CCC(OC(C)=O)C(C)(C)C1CC2O (centres undefined)
15.9

Requested field: TGI. Item: C=C1CC2(CCS(=O)(=O)c3ccccc32)OC1=O (centres undefined)
37.8

Requested field: TGI. Item: COc1ccc(-c2nc3c(C(=O)NCCN(C)C)cccc3c3ccccc23)cc1
14.9

====

Would you kindly list TGI for each of these molecules?
Test system: OVCAR-4 ovarian
methodDescription: NCI tumour cell line growth inhibition, 48 h

Requested field: TGI. Item: CN(C)C=Nc1c(I)cc(I)c(CCC(=O)O)c1I
> 100 µM

Requested field: TGI. Item: CCCC(=O)OC[n+]1ccc(-c2c(COC(=O)NC(C)C)c(COC(=O)NC(C)C)c3n2CCC3)cc1
> 100 µM

Requested field: TGI. Item: COc1ccc2nc3cccc([N+](=O)[O-])c3c(NC(C)CN(C)C)c2c1 (stereo unspecified)
4.65 µM

Requested field: TGI. Item: CS(=O)(=O)O[C@H]1[C@H](O)c2ccccc2[C@@H]1N=[N+]=[N-]
> 100 µM

Requested field: TGI. Item: CCCC[C@H]1C(=O)O[C@H](C)[C@H](NC(=O)c2cccc(NC=O)c2OC)C(=O)O[C@@H](C)[C@@H]1OC(=O)CC(C)C (tested in a mixture with another compound)
21.1 µM

Requested field: TGI. Item: CN1NC(c2ccccc2)=C(C#N)C(=O)CC1c1ccc(F)cc1 (stereo unspecified)
> 100 µM

====

Test system: SF-295 CNS
methodDescription: NCI tumour cell line growth inhibition, 48 h
recordedMetric: GI50

Requested field: GI50. Item: O=C1c2c(Cl)c(Cl)c(Cl)c(Cl)c2C(=O)C2(Cl)CC=CCC12Cl (stereo not given)
3.35 µM

Requested field: GI50. Item: CC(C)C(=O)c1c(C(F)(F)F)n([O-])c2ccccc2[n+]1=O
0.553 µM

Requested field: GI50. Item: COc1ccc(-c2cn(-c3cc(OC)c(OC)c(OC)c3)c(=O)[nH]2)cc1OC
> 100 µM

Requested field: GI50. Item: Cc1cccc(Cl)c1NC(=O)c1cnc(Nc2cc(N3CCOCC3)cc(S(C)(=O)=O)c2)s1
> 4.23 µM

Requested field: GI50. Item: COc1ccc(NC(=O)c2ccc(NC3=C(Cl)C(=O)N(Cc4ccccc4)C3=O)cc2)c(OC)c1
25.7 µM

Requested field: GI50. Item: NCCSC(c1ccccc1)(c1ccccc1)c1ccccc1
0.967 µM

Requested field: GI50. Item: Cc1ccccc1C(C(=O)NC1CCCCC1)N(C(=O)CNc1ncccc1F)c1cccc(F)c1 (stereo not given)
20.6 µM

Requested field: GI50. Item: Cc1sc2c(c1C)C(c1ccc(Cl)cc1)=N[C@@H](CC(=O)NCCCN1CCN(C)CC1)c1nnc(C)n1-2
8.12 µM

Requested field: GI50. Item: Cn1c(=O)c(Oc2ccc(F)cc2F)cc2cnc(NC3CCOCC3)nc21
> 25 µM

Requested field: GI50. Item: O=C(O)c1cn(C2CC2)c2cc(N3CCN(Cc4c(O)ccc5ccccc45)CC3)c(F)cc2c1=O
8.22 µM
